Give measured TGI for each item. Keep answers brief.
System: HCC-2998 colon
TEST_METHOD_NOTES: NCI tumour cell line growth inhibition, 48 h

Reported TGI for COc1ccc(CN2C(=O)[C@@H]3Cc4c(OC)c(C)c(OC)c(OC)c4[C@H](/C2=C\c2cc(OC)c(OC)c(C)c2OC)N3C(=O)OC(C)C)cc1 : what is it?
> 100 µM

Reported TGI for CCN1CCN(c2nc(C)cc(NCc3cc(Nc4ccnc5cc(Cl)ccc45)ccc3F)n2)CC1 : what is it?
3.89 µM

Reported TGI for COc1cccc2c1C(=O)c1c(O)c3c(c(O)c1C2=O)C[C@@](O)(/C(CO)=N/NC(=O)CCCCCN1C(=O)C=CC1=O)C[C@@H]3O[C@H]1C[C@H](N)[C@H](O)[C@H](C)O1 : what is it?
> 58.1 µM

====

Tested on: MDA-MB-231 breast
TEST_METHOD_NOTES: NCI tumour cell line growth inhibition, 48 h; in the data active = GI50 below about 0.43 µM; inactive = the rest
Give one outcome, nothing more. List: active, inactive

Which result was noted for this compound in the test: O=C1C=C(NCCO)c2nccc3c2c1nc1ccccc13
inactive

Which result was noted for this compound in the test: CN(C)c1ccc(/C=C(\C#N)c2cc3ccccc3[nH]2)cc1
inactive

Which result was noted for this compound in the test: CN1CCC2(CC1)N=C(SCC(=O)Nc1cnc3ccccc3c1)C(c1ccc(Br)cc1)=N2
inactive

Which result was noted for this compound in the test: C[C@@H](Nc1cc(F)cc(F)c1)c1cc(C(=O)N(C)C)cc2c(=O)cc(N3CCOCC3)oc12
inactive

Which result was noted for this compound in the test: COc1ccc2c(c1)C(=Nc1ccc(F)c(Cl)c1)c1c-2c(Nc2ccc(F)c(Cl)c2)nc2ccccc12
inactive

Which result was noted for this compound in the test: C=CCn1c2ccccc2c2c3c(c4c5ccccc5n(CC=C)c4c21)C(=O)N(O)C3=O
inactive

Which result was noted for this compound in the test: CCn1cc(CNc2ccc(C(=O)Nc3cc4cc(OC)c(OC)cc4c(C)n3)cc2)c(C)n1
inactive

Which result was noted for this compound in the test: O=S(=O)(NC1=NCCN1C(=S)SN1CCn2c1nsc2=S)c1ccc(Oc2ccccc2)cc1
inactive

Which result was noted for this compound in the test: NC(=O)c1c(NC(=O)c2cccs2)sc2c1CCC(=O)C2
inactive

Which result was noted for this compound in the test: Cc1nc2sc(C(=O)Nc3cccc(Br)c3C)c(N)c2cc1C(O)c1ccccc1 (stereo not drawn)
active

Which result was noted for this compound in the test: Cn1ncc(C#N)c1-c1ccc2c(c1)CN([C@H](CN)Cc1cccc(F)c1)C2=O
inactive

Which result was noted for this compound in the test: CCN(CC)CCNC(=O)c1cccc2c1-c1ccccc1C2=O
inactive

Which result was noted for this compound in the test: COc1ccc(OC)c(Nc2nc3nonc3nc2Nc2cccc(Br)c2)c1
inactive

====

System: DMS 273 small cell lung
TEST_METHOD_NOTES: NCI tumour cell line growth inhibition, 48 h
Where a SMILES comes first, the peptide text is derived from it. [ ]: non-standard residue; d: D form. The star is where a group is joined. ξ: configuration not given here. ξNMeF = CNC(Cc1ccccc1)C(=O)O; NMeV = CN[C@H](C(=O)O)C(C)C; Boc = CC(C)(C)OC(=O)*; OBn = c1ccc(CO*)cc1
Give measured TGI for each item. Keep answers brief.

Reported TGI for O=C=C=P(c1ccccc1)(c1ccccc1)c1ccccc1 : what is it?
> 100 µM

Reported TGI for CC(C)[C@@H](C(=O)N(C)[C@H](C(=O)N1CCC[C@H]1C(=O)OCc1ccccc1)C(C)C)N(C)C(=O)C(Cc1ccccc1)N(C)C(=O)[C@H](NC(=O)OC(C)(C)C)C(C)C (some centres undefined) (Boc-[dV][ξNMeF][NMeV][NMeV]P-OBn) : what is it?
> 31.6 µM

Reported TGI for Cc1ccc(Nc2cccc3c2C(=O)c2cccc(Nc4ccc(C)cc4S(=O)(=O)O)c2C3=O)c(S(=O)(=O)O)c1 : what is it?
> 100 µM

Reported TGI for COC(=O)C1=CC2C(=O)OC1C1C(=O)NC(=O)C21 (centres undefined) : what is it?
> 100 µM
